organism: Mus musculus; assay: Testing for ataxia was done by using an inverted screen technique; type: functional
Listing: Ataxia of selected molecules
Unit mg/kg implied. Number only.

* CNC12CCCCC1CCc1c(C)cc(OC)cc12 (configuration not stated) | 3.3
* NC12CCCCC1CCc1ccc(O)cc12 (configuration not stated) | 3
* CN[C@@]12CCCCC1CCc1ccccc12 (some centres not stated) | 1
* CNC1(c2ccccc2Cl)CCCCC1=O (configuration not stated) | 10
* NC12CC=CCC1CCc1ccc(O)cc12 (configuration not stated) | 1.5

Shifting focus to the molecule that follows.
Challenge: // returns reported Ataxia for input CNC12CCCCC1CSc1ccccc12 (configuration not stated)
Response given: 1.5
